- System: Puccinia triticina
- assay-name: Wheat Brown Rust fungicidal activity (PUCCRT)
- Format: in vivo
- condition-summary: 24 h, Low Volume Cereal Activity at 121.5 g/Ha, 1 Day Protectant, read-out: PUCCRT 1DP (Wheat Brown Rust, 1 Day Protectant)
Listing of recorded pest or weed control at 121.5 g/ha by entry.

See these solved cases before continuing.
# smiles-input, tgt, pest or weed control at 121.5 g/ha
measured = [
    ("COc1ccnc(C(=O)N[C@@H](C)C(=O)O[C@@H](C)[C@@H](OC)c2ccccc2)c1OCOC(C)=O", "Puccinia triticina", "> 80%"),
    ("CCCO[C@@H](c1ccccc1)[C@H](C)OC(=O)[C@H](C)NC(=O)c1nccc(OC)c1OC(C)=O", "Puccinia triticina", "> 80%"),
    ("CC[C@H](NC(=O)c1nccc(OC)c1OCOC(C)=O)C(=O)O[C@@H](C)[C@H](Oc1cc(F)ccc1F)c1ccccc1", "Puccinia triticina", "> 80%"),
    ("COc1cccc([C@@H](Oc2ccccc2)[C@H](C)OC(=O)[C@H](C)NC(=O)c2nccc(OC)c2OCOC(C)=O)c1", "Puccinia triticina", "> 80%"),
    ("COc1ccnc(C(=O)N[C@@H](C)C(=O)O[C@@H](C)[C@H](Oc2cccc(F)c2)c2cccc(-c3ccccc3)c2)c1OCOC(C)=O", "Puccinia triticina", "> 80%"),
]

Ask: Checklist item: pest or weed control at 121.5 g/ha tested on Puccinia triticina, entry `COc1ccnc(C(=O)N[C@@H](C)C(=O)O[C@@H](C)[C@H](Oc2ccccc2)c2ccc(F)cc2)c1OC(C)=O` , value?
Result: > 80%

Ask: Checklist item: pest or weed control at 121.5 g/ha tested on Puccinia triticina, entry `COc1ccnc(C(=O)N[C@@H](C)C(=O)O[C@H](C)[C@@H](Oc2ccccc2)c2ccccc2)c1OCOC(C)=O` , value?
Result: > 80%
